Here, each record is paired with measured pKi data.
- study target: human CB-1 receptor (Homo sapiens)
- Sequence (P21554 whole entry): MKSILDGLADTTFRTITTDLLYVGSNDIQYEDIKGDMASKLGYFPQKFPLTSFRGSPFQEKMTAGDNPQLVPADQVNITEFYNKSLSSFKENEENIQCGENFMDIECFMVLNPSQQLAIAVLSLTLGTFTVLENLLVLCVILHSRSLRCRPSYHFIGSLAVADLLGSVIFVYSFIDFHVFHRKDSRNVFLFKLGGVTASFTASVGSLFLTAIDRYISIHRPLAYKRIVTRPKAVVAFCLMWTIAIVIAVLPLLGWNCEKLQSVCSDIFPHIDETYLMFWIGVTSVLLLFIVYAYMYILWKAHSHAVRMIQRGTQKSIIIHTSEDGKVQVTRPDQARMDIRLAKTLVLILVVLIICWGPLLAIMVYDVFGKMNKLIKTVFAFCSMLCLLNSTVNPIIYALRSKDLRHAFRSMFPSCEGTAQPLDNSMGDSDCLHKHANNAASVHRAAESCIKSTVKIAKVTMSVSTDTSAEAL
pKi is a log-scale quantity: -log10 of the concentration expressed in molar.

Summary: COc1ccc(-c2oc3cc(OC)ccc3c2C(O)c2ccc(OC)cc2)cc1 (centres unmarked) [Example 15] , human CB-1 receptor (Homo sapiens), pKi = 4.59

COc1ccc(C(=O)c2c(-c3ccc(OC)cc3)sc3cc(OC)ccc23)cc1 [Example 7] tested on human CB-1 receptor (Homo sapiens) gave pKi: 5.44

Entry COc1ccc2c(C(=O)c3ccc(C#N)cc3)c(-c3ccc(C)cc3)oc2c1 [Example 3] , tested on human CB-1 receptor (Homo sapiens), has a reported pKi of 6.87

Form field, pKi with human CB-1 receptor (Homo sapiens), item CCCCOc1ccc(C(=O)c2c(-c3ccc(OC)cc3)sc3cc(OC)ccc23)cc1 [Example 13] : 6.37

human CB-1 receptor (Homo sapiens) data for CCCOc1ccc(C(=O)c2c(-c3ccc(OC)cc3)sc3cc(OC)ccc23)cc1 [Example 12] ; its pKi: 5.81

====

Read-out record for human CB-1 receptor (Homo sapiens, UniProt P21554): Ki
Enter your answer as a number in nM; do not include the unit.

COc1ccc(-c2oc3cc(OC)ccc3c2C(=O)c2ccc(OS(=O)(=O)C(F)(F)F)cc2)cc1; 490
COc1ccc(Cc2c(-c3ccc(OC)cc3)oc3cc(OC)ccc23)cc1; 5300
COc1ccc(-c2oc3cc(OC)ccc3c2C(=O)c2ccc(O)cc2)cc1; 4120

Shifting focus to the compound that follows.
Lookup result for COc1ccc(-c2sc3cc(OC)ccc3c2C(=O)c2ccc(O)cc2)cc1 ; measured Ki: 950
